These measurements were taken from patent US9676784B2.

Parameter Ki, tested on UniProtKB Q60492, listed per item.
Property name: Ki (nM)

c1ccc(CCN2CCn3c(cnc3Nc3ccccc3)C2)cc1 : 101
Fc1ccc(Nc2ncc3n2CCN(Cc2ccc(F)cc2F)C3)cc1 : 37
CCNC(=O)Nc1ncc2n1CCN(CC1CCCCC1)C2 : 106
c1ccc(Nc2ncc3n2CCN(CC2CCCCC2)C3)cc1 : 8.2
COc1cccc(Nc2ncc3n2CCCN(CC2CCOCC2)C3)c1 : 266

1: Fc1ccc(Nc2ncc3n2CCN(CC2CCC(F)(F)CC2)C3)cc1
2: COc1cccc(Nc2ncc3n2CCN(CC2CCCCC2)C3)c1
Returns: the argument ( 1 or 2 ) having the larger Ki. Output the label that corresponds to your choice. 1
(1: 21 nM, 2: 13 nM)

---

pKi: −log10 of the molar value.
For σ1-receptor (Cavia porcellus, UniProt Q60492), measured pKi is reported for the entries below.
Property name: pKi

Solved cases (2 shown):
Fc1c(Cl)cccc1Nc1ncc2n1CCCN(CC1CCOCC1)C2 : 7.85
CCC(=O)N(c1cccc(O)c1)c1ncc2n1CCN(Cc1ccccc1)C2 : 6.91

A: Fc1ccc(Nc2ncc3n2CCN(C2CCCCC2)C3)cc1
B: Fc1cc(F)cc(Nc2ncc3n2CCCN(CC2CCOCC2)C3)c1
C: CCNC(=O)Nc1ncc2n1CCCN(CC1CCCCC1)C2
D: Fc1ccc(Nc2ncc3n2CCN(Cc2ccc(F)nc2)C3)cc1
E: Fc1cc(F)cc(Nc2ncc3n2CCN(CC2CCCCC2)C3)c1
Arrange these 5 compounds in increasing order of pKi. Sort the labels as requested; that list is your answer. D, C, A, B, E
(D: 6.51, C: 6.75, A: 7.17, B: 7.59, E: 7.92)

---

System name: UniProt Q60492
pKi: −log10 of the molar value.
Property name: pKi

Fc1ccc(Nc2ncc3n2CCCN(CC2CCOCC2)C3)cc1 [Example 16] : 6.76
CCC(=O)N(c1cccc(O)c1)c1ncc2n1CCN(CCc1ccccc1)C2 [Example 25] : 6.45
Fc1c(Cl)cccc1Nc1ncc2n1CCN(Cc1ccccc1)C2 [Example 9] : 6.63
